From: PubChem BioAssay (NCI)

Tested on: EKVX NSCLC
protocol-notes: NCI-60 one-dose screen, 48 h
study-conditions: 10 µM unless noted
Protocol: Growth inhibition of the EKVX human Non-Small Cell Lung tumor cell line is measured as a screen for anti-cancer activity. Cells are grown in 96 well plates and exposed to the test compound for 48 hours. Compounds are tested at a single concentration, which is 10^-5 M for most compounds. The reported endpoint is percent growth (GI% or GIPRCNT), where numbers from 0 - 100% represent growth inhibition, and numbers from -100% - 0 represent cell death. […]
Compounds without any hit were thinned out: in the full panel of roughly 83,000, 20% have a hit. Calls of active or inactive are those of the source. How the source made its calls: active means growth percent below 10; inactive means the rest.
Pick one and only one: y = active, n = inactive

Some entries whose results are on file:
| compound | assay-system | cat |
| --- | --- | --- |
| O=C1CCC/C=C\C[C@H]2C=C(Cl)C(=O)/C2=C/C[C@H](CCCCC(F)(F)F)OC(=O)CCC/C=C\C[C@H]2C=C(Cl)C(=O)/C2=C/C[C@H](CCCCC(F)(F)F)O1 | EKVX NSCLC | n |
| CCCCC[C@H]1CC=C2C(=O)C(Cl)=C[C@@H]2CC=CCCCC(=O)O[C@@H](CCCCC)CC=C2C(=O)C(Cl)=C[C@@H]2CC=CCCCC(=O)O[C@@H](CCCCC)CC=C2C(=O)C(Cl)=C[C@@H]2CC=CCCCC(=O)O1 | EKVX NSCLC | n |
| Cc1ccsc1-c1ccc2c(c1)COC2(CCCN(C)C)c1ccc(F)cc1 (configuration not stated) | EKVX NSCLC | n |
| O=C(NC1=CC(=O)c2ccccc2C1=O)c1ccccc1 | EKVX NSCLC | y |
| Cn1c(=O)c2c(ncn2CCC(=O)Nc2ccc(F)cc2)n(C)c1=O | EKVX NSCLC | n |

[in] Given Cc1ccc(-c2nn(Cc3cn(-c4cc(C)nc5ccccc45)nn3)c3ncnc(N)c23)cc1 , state the outcome it received in this test.
[out] n

[in] Note, next up: CCCCC[C@H]1C/C=C2/C(=O)C(Cl)=C[C@@H]2C/C=C\CCCC(=O)O[C@@H](CCCCC)C/C=C2/C(=O)C(Cl)=C[C@@H]2C/C=C\CCCC(=O)O1
[out] y

* * *

Each entry below carries its reported growth.
System: SNB-75 CNS
protocol-notes: NCI-60 one-dose screen, 48 h (100 = growth as untreated, 0 = no growth, -100 = all killed)
study-conditions: 10 µM unless noted
This is part of a sample that, as a whole, favours compounds with a hit. Of some 83,000 tested, about 20% had one in any assay.
Give your result in % as a bare value.

| entry-smiles | growth [%] |
| --- | --- |
| O=C(CI)Nc1ccc(O)c2ccccc12 | 54.2 |
| Cn1cc(-c2csc(-c3cn(CCCN4CCCCC4)c4ccccc34)n2)c2cccnc21 | 49.3 |
| O=C1c2cccc3cccc(c23)C(=O)N1CC#Cc1ccc2c3c(cccc13)C(=O)N(CCN1CCNCC1)C2=O | 99.6 |
| O=C(O[C@@H]1Cc2c(O)cc(O)cc2O[C@@H]1c1cc(O)c(O)c(O)c1)c1cc(O)c2c(c1)OCO2 | 93.8 |

Consider now this further compound.
[in] Quick one: growth of Cn1cc(-c2csc(-c3cn(CCNC(=O)OC(C)(C)C)c4ccccc34)n2)c2cccnc21 ?
[out] 88.5
